All figures here come from ChEMBL document CHEMBL2069291.

Test details: Cmax in female C57BL/6 mouse at 1 mg/kg, po administered as single dose
Run parameters: in vivo
Property label: Cmax (ng/mL)

INSERT INTO measurements (smiles_repr, units_label, recorded_measurement) VALUES
  ('COc1cnc(-c2ccccn2)nc1N1CCCC1', 'ng/mL', 7);

###

Test details: Cmax in ovariectomized Wistar rat at 3 mg/kg, po administered as single dose
Format: ADME, organism-based
Design: dose 3 mg/kg, route oral
Run parameters: female, in vivo
Property label: Cmax (ng/mL)

INSERT INTO assay_data (smiles_repr, property_label, recorded_measurement) VALUES
  ('COc1cnc(-c2ccccn2)nc1NCc1c(F)cc(F)cc1F', 'Cmax', 135),
  ('COc1cnc(-c2ccccn2)nc1NCc1ccccc1F', 'Cmax', 49),
  ('COc1cnc(-c2ccccn2)nc1NCc1ccc(F)cc1C(F)(F)F', 'Cmax', 156);

###

Test details: AUC (0 to infinity) in female C57BL/6 mouse at 3 mg/kg, po administered as single dose
Type: ADME, organism-based
Set-up: dose 3 mg/kg, route oral, time infinity
Run parameters: plasma
Property label: AUC(0-inf) (ng·h/mL)

INSERT INTO assay_data (smiles_repr, recorded_measurement) VALUES
  ('COc1cnc(-c2ccccn2)nc1NCc1ccccc1F', 240),
  ('COc1cnc(-c2ccccn2)nc1NCc1c(F)cc(F)cc1F', 188),
  ('COc1cnc(-c2ccccn2)nc1NCc1ccc(F)cc1C(F)(F)F', 1020);

###

Test details: AUC (0 to infinity) in female C57BL/6 mouse at 1 mg/kg, po administered as single dose
Run parameters: plasma
Property label: AUC(0-inf) (ng·h/mL)

INSERT INTO results (smiles_repr, units_label, recorded_measurement) VALUES
  ('COc1cnc(-c2ccccn2)nc1N1CCCC1', 'ng·h/mL', 15);

###

Test details: Solubility in phosphate buffer at pH 6.8
Assay type: physicochemical
Readings of solubility for the listed molecules
Property label: solubility

INSERT INTO results (smiles_repr, property_label, recorded_measurement) VALUES
  ('COc1cnc(-c2ccccn2)nc1NCc1ccc(F)cc1C(F)(F)F', 'solubility', '> 25 µg/mL'),
  ('COc1cnc(-c2ccccn2)nc1NCc1ccccc1F', 'solubility', '> 25 µg/mL'),
  ('COc1cnc(-c2ccccn2)nc1NCc1c(F)cc(F)cc1F', 'solubility', '> 25 µg/mL');

###

Overview of reported AUC(0-inf) across a group of compounds:
Test details: AUC (0 to infinity) in ovariectomized Wistar rat at 3 mg/kg, po administered as single dose
Format: ADME, organism-based
Design: dose 3 mg/kg, route oral, time infinity
Run parameters: female, plasma
Property label: AUC(0-inf) (ng·h/mL)

INSERT INTO assay_data (smiles_repr, units_label, recorded_measurement) VALUES
  ('COc1cnc(-c2ccccn2)nc1NCc1ccccc1F', 'ng·h/mL', 151),
  ('COc1cnc(-c2ccccn2)nc1NCc1c(F)cc(F)cc1F', 'ng·h/mL', 542),
  ('COc1cnc(-c2ccccn2)nc1NCc1ccc(F)cc1C(F)(F)F', 'ng·h/mL', 943);
